# Target Or System: human σ2 receptor (TMEM97) (Homo sapiens)
# Sequence (Q5BJF2 whole entry): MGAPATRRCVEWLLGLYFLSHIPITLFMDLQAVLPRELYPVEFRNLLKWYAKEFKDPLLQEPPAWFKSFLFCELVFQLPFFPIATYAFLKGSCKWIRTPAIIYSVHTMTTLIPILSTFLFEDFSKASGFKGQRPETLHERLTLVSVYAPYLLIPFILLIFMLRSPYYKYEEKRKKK
# Run Description: biochemical
# Assay type: Expi293 membranes
# Measurement Parameters: read-out: % of control remaining
Exercise: state measured remaining activity at 1 µM for each of the compounds provided.
# value in %; strip the unit string

What value of remaining activity at 1 µM has been reported for the following compound? Cn1nccc1[C@@H]1CCC[C@@H](N[C@H]2CC3CCC2CC3)C1 [ZINC000550829396]
19.6

What value of remaining activity at 1 µM has been reported for the following compound? Cn1nc(C(=O)N[C@@H]2CCN(C(=O)Cc3cscn3)C2)ccc1=O [ZINC000942457739]
89.4

What value of remaining activity at 1 µM has been reported for the following compound? CS[C@@H]1CCC[C@H](NC(=O)NC2CCN([C@@H]3CCCC[C@@H]3O)CC2)C1 [ZINC000155998528]
30.9

What value of remaining activity at 1 µM has been reported for the following compound? C[C@@H]1CCN2C(=O)N(CCCN3CCC[C@@H](C(N)=O)C3)C(=O)[C@H]2C1 [ZINC000349353698]
142

What value of remaining activity at 1 µM has been reported for the following compound? O=C(Nc1cnn(CC2CC2)c1)C(=O)N1CCC[C@H]([C@@H]2CCNC2)C1 [ZINC000667676804]
94.4

What value of remaining activity at 1 µM has been reported for the following compound? OC[C@@H](CNC[C@H](O)c1ccc(F)c(Br)c1)CC1CCCC1 [ZINC000843092160]
16.2

What value of remaining activity at 1 µM has been reported for the following compound? CC1CCC(O)(CN2CC(Cc3ccc(F)c(F)c3)C2)CC1 (stereo not drawn) [ZINC000548355486]
0.4

What value of remaining activity at 1 µM has been reported for the following compound? NC(=O)C1(N2CCCCC2)CCN(CC(=O)NCC2CCC2)CC1 [ZINC000880249690]
113

What value of remaining activity at 1 µM has been reported for the following compound? Cc1cc(C)nc(NC[C@@H](O)CNC(=O)[C@@H]2CCc3c[nH]nc3C2)n1 [ZINC001105862991]
76.1

What value of remaining activity at 1 µM has been reported for the following compound? CC(C)=CC(=O)N1CC[C@@H](CNC(=O)c2ccn(CCN(C)C)n2)C1 [ZINC000982403760]
104

What value of remaining activity at 1 µM has been reported for the following compound? O=C(CN[C@H]1CCNC12CCC2)NCCN1CCc2ccccc21 [ZINC000903470913]
92.2

What value of remaining activity at 1 µM has been reported for the following compound? COC(=O)N1CCC[C@H](NC(=O)C(=O)N2CC[C@@](O)(C3CC3)C2)C1 [ZINC001323717111]
95

What value of remaining activity at 1 µM has been reported for the following compound? CC[C@H]1CN(Cc2ccc(-c3ccccc3)cc2F)C[C@H]1O [ZINC000507809396]
14

What value of remaining activity at 1 µM has been reported for the following compound? C=CCOCC(=O)N(CCN)CCc1ccccc1 [ZINC000261774189]
108

What value of remaining activity at 1 µM has been reported for the following compound? C[C@H](C(=O)Nc1ccc(F)cc1Cl)N1CC[C@H](N2CCCC2)C1 [ZINC000533411740]
79.7

What value of remaining activity at 1 µM has been reported for the following compound? COCCOCc1cccc(NC(=O)NCC2(C)CCN(C)CC2)c1 [ZINC000679555790]
103

What value of remaining activity at 1 µM has been reported for the following compound? COCCN1C[C@H](C(=O)N[C@H]2C[C@H](NC(=O)c3cn[nH]c3)C2)CC1=O [ZINC000973057271]
111

What value of remaining activity at 1 µM has been reported for the following compound? C[C@@H]1CN(C2CC2)C[C@H]1NC(=O)N(Cc1cccc(Br)c1)C1CC1 [ZINC000466933503]
84.3

What value of remaining activity at 1 µM has been reported for the following compound? Cc1ccc(CN2[C@@H]3CC[C@H]2[C@@H](NC(=O)c2cn(C)cn2)C3)c(C)c1 [ZINC001095312060]
69.4

What value of remaining activity at 1 µM has been reported for the following compound? Cc1ccc2c(c1)[C@H](NC(=O)NC[C@@H]1CCN(C(C)C)C1)CCC2 [ZINC000575186982]
22.9

What value of remaining activity at 1 µM has been reported for the following compound? Cc1ccoc1CC(=O)N1C[C@H]2CCN(CC(=O)N(C)C)C[C@H]2C1 [ZINC001088099598]
132

What value of remaining activity at 1 µM has been reported for the following compound? Cn1cc(C(=O)N2CCO[C@@H](CNC(=O)C=C3CCC3)C2)ncc1=O [ZINC001065434920]
57.8

What value of remaining activity at 1 µM has been reported for the following compound? Cc1cc(C)nc(C(=O)N2CC[C@H]2CNC(=O)[C@@H]2CCN(C)C2)c1 [ZINC000950078544]
108

What value of remaining activity at 1 µM has been reported for the following compound? O=C(NCC1CN(C(=O)[C@H]2CC[C@H]3CCCCN32)C1)c1cnccn1 [ZINC001000730978]
81.3

What value of remaining activity at 1 µM has been reported for the following compound? C[C@@H]1[C@H](Cc2ccccc2)CCN1Cc1cc(=O)n2cc(Cl)ccc2n1 [ZINC000472356611]
45.9

What value of remaining activity at 1 µM has been reported for the following compound? CCNS(=O)(=O)CCNC(=O)C(=O)N[C@@H](C)C1=CCN(C)CC1 [ZINC001261177261]
70.9

What value of remaining activity at 1 µM has been reported for the following compound? CNC[C@H](C)NC(=O)C(=O)NCc1ccc(N2CCO[C@@H](C)C2)nc1 [ZINC000659691253]
82.1

What value of remaining activity at 1 µM has been reported for the following compound? CS[C@@H]1CCN(C[C@@H](O)c2ccccc2C(F)(F)F)C1 [ZINC000830877226]
78.8

What value of remaining activity at 1 µM has been reported for the following compound? CC(C)N1CC[C@H](N(C)S(=O)(=O)C[C@H]2CCCCC2(F)F)C1 [ZINC000452100574]
73.3

What value of remaining activity at 1 µM has been reported for the following compound? CCc1ocnc1C(=O)NC[C@H]1CN(C[C@@H](C)CC)CCO1 [ZINC001035320653]
119

What value of remaining activity at 1 µM has been reported for the following compound? CN(CCCN(C)C(=O)C(=O)N(CCO)C1CC1)Cc1ccco1 [ZINC000297448741]
105

What value of remaining activity at 1 µM has been reported for the following compound? CCN1CC[C@H](N2CCC[C@@H](NC(=O)c3ccc(O)nn3)CC2)C1=O [ZINC001052175095]
104

What value of remaining activity at 1 µM has been reported for the following compound? CCCCNC(=O)[C@H](C)N1CC[C@](C)(CNC(=O)OC(C)(C)C)C1 [ZINC000495656270]
45.1
